- Tested on: 293T cells
- Protocol details: Cytotoxicity test (CCK-8 cell viability) in 293T cells
- Format: cell-based, human
- Experimental context: 293T cell line, 10 uM

{"columns": ["Chemical structure", "Cell viability test results (CCK) 10 uM"],
 "data": [
  ["C[C@H]1CC[C@@H](C(=O)O)CN1C(=O)Cc1ccc(-c2ccc(-c3ccccc3)nc2)cc1", "85%<"],
  ["C[C@H]1CC[C@@H](C(=O)O)CN1C(=O)Cc1ccc(-c2cccnc2)cc1", "95%<"],
  ["C[C@H]1CC[C@@H](C(=O)O)CN1C(=O)Cc1ccc(-c2ccc(N)cc2)cc1", "80%<"],
  ["C[C@H]1CC[C@@H](C(=O)O)CN1C(=O)Cc1cccc(-c2ncc(F)cn2)c1", "85%<"],
  ["C[C@H]1CC[C@@H](C(=O)O)CN1C(=O)Cc1cccc(-c2ccncc2)c1", "95%<"],
  ["C[C@H]1CC[C@@H](C(=O)O)CN1C(=O)Cc1ccc(-c2ccncn2)cc1", "99%<"],
  ["C[C@@H]1CC[C@H](C(=O)O)CN1C(=O)Cc1ccc(-c2cnccn2)cc1", "99%<"],
  ["C[C@H]1CC[C@@H](C(=O)O)CN1C(=O)Cc1ccc(-c2ncccn2)cc1", "95%<"],
  ["C[C@H]1CC[C@@H](C(=O)O)CN1C(=O)Cc1ccc(-c2ccnnc2)cc1", "99%<"],
  ["Cc1ccc(-c2ccc(CC(=O)N3C[C@H](C(=O)O)CC[C@@H]3C)cc2)cn1", "80%<"],
  ["COc1ccc(-c2cccc(CC(=O)N3C[C@H](C(=O)O)CC[C@@H]3C)c2)cn1", "90%<"],
  ["C[C@H]1CC[C@@H](C(=O)O)CN1C(=O)Cc1ccc(-c2nccn2C)cc1", "95%<"],
  ["C[C@H]1CC[C@@H](C(N)=O)CN1C(=O)Cc1ccc(-c2ncccn2)cc1", "99%<"],
  ["C[C@H]1CC[C@@H](C(=O)O)CN1C(=O)Cc1ccc(-c2ccc(C3CC3)nc2)cc1", "90%<"],
  ["C[C@H]1CC[C@@H](C(=O)O)CN1C(=O)Cc1ccc(-c2cncnc2)cc1", "99%<"],
  ["C[C@H]1CC[C@@H](C(=O)O)CN1C(=O)Cc1ccc(-c2ccc(C(F)(F)F)nc2)cc1", "95%<"],
  ["C[C@H]1CC[C@@H](C(=O)O)CN1C(=O)Cc1ccc(-c2ccc(-c3cccnc3)cc2)cc1", "65%<"],
  ["C[C@H]1CC[C@@H](C(N)=O)CN1C(=O)Cc1ccc(-c2ncc(F)cn2)cc1", "90%<"],
  ["C[C@H]1CC[C@@H](C(=O)O)CN1C(=O)Cc1ccc(-c2cnccn2)cc1", "99%<"],
  ["C[C@H]1CC[C@@H](C(=O)O)CN1C(=O)Cc1cccc(-c2cncnc2)c1", "80%<"],
  ["C[C@H]1CC[C@@H](C(=O)O)CN1C(=O)Cc1ccc(-c2ccccn2)cc1", "80%<"],
  ["C[C@H]1CC[C@@H](C(=O)O)CN1C(=O)Cc1ccc(-c2cnco2)cc1", "95%<"],
  ["C[C@H]1CC[C@@H](C(=O)O)CN1C(=O)Cc1ccc(-c2ccc(C3CCCCC3)cc2)cc1", "30%<"],
  ["C[C@H]1CC[C@@H](C(=O)O)CN1C(=O)Cc1ccc(-c2ccccc2)cc1", "95%<"],
  ["C[C@H]1CC[C@@H](C(=O)O)CN1C(=O)Cc1ccc(-c2ccncc2)cc1", "99%<"],
  ["COc1ccc(-c2ccc(CC(=O)N3C[C@H](C(=O)O)CC[C@@H]3C)cc2)cn1", "85%<"],
  ["C[C@H]1CC[C@@H](C(=O)O)CN1C(=O)Cc1ccc(-c2cnc(C3CC3)nc2)cc1", "80%<"],
  ["C[C@H]1CC[C@@H](C(=O)O)CN1C(=O)c1ccc(-c2cccnc2)cc1", "85%<"],
  ["C[C@H]1CC[C@@H](C(=O)O)CN1C(=O)Cc1ccc(-c2cccs2)cc1", "90%<"],
  ["C[C@H]1CC[C@@H](C(=O)O)CN1C(=O)Cc1ccc(-c2ccco2)cc1", "95%<"],
  ["C[C@H]1CC[C@@H](C(=O)O)CN1C(=O)Cc1ccc2c(c1)OCCO2", "99%<"],
  ["C[C@H]1CC[C@@H](C(=O)O)CN1C(=O)Cc1cccc(-c2ccccc2)c1", "90%<"],
  ["C[C@H]1CC[C@@H](C(=O)O)CN1C(=O)Cc1ccc(-c2ccc(F)cc2)cc1", "90%<"],
  ["O=C(NO)[C@@H]1CCCN1C(=O)Cc1ccc(-c2cncnc2)cc1", "95%<"]
]}

====

- Tested on: 293T cells
- Protocol details: Cytotoxicity test (CCK-8 cell viability) in 293T cells
- Type: cell-based, human
- Experimental context: 293T cell line, 100 uM

{"columns": ["Chemical structure", "Unit string", "Cell viability test results (CCK) 100 uM"],
 "data": [
  ["O=C(NO)[C@H]1CCCN1C(=O)Cc1ccc(-c2cncnc2)cc1", "%<", 99],
  ["C[C@H]1CC[C@@H](C(=O)O)CN1C(=O)Cc1ccc(-c2ccc([N+](=O)[O-])cc2)cc1", "%<", 60],
  ["C[C@H]1CC[C@@H](C(=O)O)CN1C(=O)c1ccc(-c2cccnc2)cc1", "%<", 85]
]}
